[
  {
    "compound": "CCOC(=O)C=Nc1c(Cl)cccc1C(=O)O",
    "melting point": "175 °C"
  },
  {
    "compound": "CCCCCCCCNC(=O)Nc1ccc(Nc2ccc(N(CC)CCNS(C)(=O)=O)cc2C)c2ccccc12",
    "melting point": "132 to 133 °C"
  },
  {
    "compound": "CCOC(=O)c1sc2cc(COS(C)(=O)=O)ccc2c1S(=O)c1cccc(OC)c1 (centres undefined)",
    "melting point": "80 to 83 °C"
  },
  {
    "compound": "CCC(Cc1ccc(OC)c(C(=O)NCc2ccc(C(F)(F)F)cc2)c1)C(=O)O (centres undefined)",
    "melting point": "128 to 130 °C"
  }
]

----------
Parameter melting point: see the listing below.

[
  {
    "compound": "O=C(CCCCC1CCSS1)N1CCSCC1 (stereo not drawn)",
    "melting point": "31 to 32 °C"
  },
  {
    "compound": "CCC(C)(COc1nn2ncnc2cc1C)CS(N)(=O)=O (stereo not drawn)",
    "melting point": "189 to 190 °C"
  },
  {
    "compound": "O=C(Nc1cccc(C(F)(F)F)c1)c1cc(-c2ccc(F)cc2F)ccc1O",
    "melting point": "202 to 203 °C"
  }
]

----------
assay.readout: melting point

[
  {
    "compound": "CN1CCCCc2cc(Nc3ncc(Cl)c(Nc4ccccc4NS(C)(=O)=O)n3)ccc21",
    "assay.readout": "melting point",
    "result": "170 to 172 °C"
  },
  {
    "compound": "CCOC(=O)C(C)(C)n1c(=O)[nH]c2ccc([N+](=O)[O-])cc2c1=O",
    "assay.readout": "melting point",
    "result": "184 to 185 °C"
  },
  {
    "compound": "CCOc1ccc2c(c1)C(C)=CC(C)(C)N2C1O[C@H](COC(C)=O)[C@@H](OC(C)=O)[C@H](OC(C)=O)[C@H]1OC(C)=O (some centres undefined)",
    "assay.readout": "melting point",
    "result": "180 to 181 °C"
  },
  {
    "compound": "CN1CCN(c2nc3c(c(NCCO)n2)SCCC3)CC1",
    "assay.readout": "melting point",
    "result": "162 to 164 °C"
  },
  {
    "compound": "Fc1ccccc1N1CCN(Cc2nc3ccccc3[nH]2)CC1",
    "assay.readout": "melting point",
    "result": "262 to 264 °C"
  },
  {
    "compound": "c1cc(NC2=NCCN2)ccc1Cc1ccc(OC2CCOCC2)cc1",
    "assay.readout": "melting point",
    "result": "169 to 170 °C"
  },
  {
    "compound": "COC(=O)c1cc(S(N)(=O)=O)cc2c1OCCO2",
    "assay.readout": "melting point",
    "result": "225 to 226 °C"
  },
  {
    "compound": "CN(CCO)c1cccc2c1C(=O)c1c(cccc1N(C)CCO)C2=O",
    "assay.readout": "melting point",
    "result": "168 to 178 °C"
  },
  {
    "compound": "Fc1ccc(Cn2c(NC3CCN(CCn4c(=S)[nH]c5ccccc54)CC3)nc3ccccc32)cc1",
    "assay.readout": "melting point",
    "result": "235 °C"
  },
  {
    "compound": "CC(C)c1sc2ncnc(N)c2c1-c1ccc(NC(=O)c2ccccc2)cc1",
    "assay.readout": "melting point",
    "result": "> 250 °C"
  },
  {
    "compound": "O=C(O)COc1c[nH]c(CCl)cc1=O",
    "assay.readout": "melting point",
    "result": "150 to 155 °C"
  },
  {
    "compound": "CCOc1cc2nc(NC)nc(-c3cccc(-c4cnc5ccccc5c4)c3)c2cc1OCC",
    "assay.readout": "melting point",
    "result": "157 to 159 °C"
  },
  {
    "compound": "CCNC(=O)/C=C1\\CCc2ccc(F)cc21",
    "assay.readout": "melting point",
    "result": "125 to 127 °C"
  },
  {
    "compound": "O=C1CCCc2nc3ccccc3c(NCc3ccc(OCc4ccccc4)cc3)c21",
    "assay.readout": "melting point",
    "result": "153 to 157 °C"
  },
  {
    "compound": "CCOc1c(Nc2cccnc2)c(=O)c1=O",
    "assay.readout": "melting point",
    "result": "140 to 145 °C"
  },
  {
    "compound": "CCC(C)(C)NC(=O)C(=O)c1ccccc1",
    "assay.readout": "melting point",
    "result": "29 to 30 °C"
  },
  {
    "compound": "CCOc1ccc(C(=O)CCC(=O)Nc2cc(OCc3ccccc3)cc(-c3ccccc3)n2)cc1OCC",
    "assay.readout": "melting point",
    "result": "156 to 157 °C"
  },
  {
    "compound": "CC(C)(O)Cn1cnc2cnc3ccccc3c21",
    "assay.readout": "melting point",
    "result": "169 to 170 °C"
  },
  {
    "compound": "Nc1ccc(Nc2c(CC3CC4C=CC3C4)cc(C(=O)O)cc2S(N)(=O)=O)cc1 (centres undefined)",
    "assay.readout": "melting point",
    "result": "245 °C"
  },
  {
    "compound": "COc1ccc(-n2ncc(C(N)=O)c2N)cc1",
    "assay.readout": "melting point",
    "result": "213 to 215 °C"
  },
  {
    "compound": "COC(=O)CNC(=O)c1ccc(C(=O)NS(=O)(=O)c2ccc(CCNC(=O)C(C)C)cc2)cn1",
    "assay.readout": "melting point",
    "result": "197 to 199 °C"
  },
  {
    "compound": "CCOC(=O)C1=C(C)NC(c2ncsc2Cl)=NC1c1ccc(F)cc1Cl (centres undefined)",
    "assay.readout": "melting point",
    "result": "149 to 152 °C"
  },
  {
    "compound": "CS(=O)c1ccc(C2=NN(S(=O)(=O)c3ccc(I)cc3)CCC2)cc1 (centres undefined)",
    "assay.readout": "melting point",
    "result": "191 to 193 °C"
  },
  {
    "compound": "Cc1cn(Cc2ccc(F)cc2)cc1C(=O)CC(=O)C(=O)O",
    "assay.readout": "melting point",
    "result": "162 to 163 °C"
  },
  {
    "compound": "COc1cc(S(=O)(=O)CCO)ccc1[N+](=O)[O-]",
    "assay.readout": "melting point",
    "result": "95 to 96 °C"
  },
  {
    "compound": "CC(=O)OC1CC(n2cc(C=CBr)c(=O)[nH]c2=O)OC1CC#N (centres undefined)",
    "assay.readout": "melting point",
    "result": "96 °C"
  },
  {
    "compound": "CCOC(=O)c1cnn2c1c(Nc1ccccc1)nc1ccccc12",
    "assay.readout": "melting point",
    "result": "145 to 147 °C"
  },
  {
    "compound": "O=C(NCc1ccc(F)cc1)c1cn(N2CCOCC2)c2ccc(CN3CCOCC3)cc2c1=O",
    "assay.readout": "melting point",
    "result": "165 to 167 °C"
  },
  {
    "compound": "O=c1oc2cc(O)cc(O)c2c(O)c1C1=CCOc2oc3ccccc3c(=O)c21",
    "assay.readout": "melting point",
    "result": "254 to 256 °C"
  },
  {
    "compound": "CC(=CCO)CS(=O)(=O)c1ccccc1",
    "assay.readout": "melting point",
    "result": "55 to 56.5 °C"
  },
  {
    "compound": "O=c1[nH]c2cc([N+](=O)[O-])ccc2c(O)c1-c1ccccc1",
    "assay.readout": "melting point",
    "result": "> 330 °C"
  },
  {
    "compound": "COC(=O)C1=C(C)NC(C)=C(C(=O)OCCN2CCN(c3ccccc3OC)CC2)C1c1cccc([N+](=O)[O-])c1 (centres undefined)",
    "assay.readout": "melting point",
    "result": "58 °C"
  },
  {
    "compound": "O=c1[nH]c2cc(Cl)ccc2c(O)c1-c1ccc(/C=C\\c2ccccc2)cc1",
    "assay.readout": "melting point",
    "result": "284 to 286 °C"
  },
  {
    "compound": "Nc1ccc2c(c1)OCC(=S)N2",
    "assay.readout": "melting point",
    "result": "205 to 211 °C"
  },
  {
    "compound": "CC1C(NC(=O)OCc2ccccc2)C(=O)N1OCC(=O)OC(C)(C)C (centres undefined)",
    "assay.readout": "melting point",
    "result": "30 °C"
  },
  {
    "compound": "CC(C)(C)OC(=O)NCc1ccc(C(=O)NCCC(=O)OCc2ccccc2)cc1",
    "assay.readout": "melting point",
    "result": "113 to 116 °C"
  },
  {
    "compound": "COc1ccccc1Oc1c(Cl)nc(SC)nc1Cl",
    "assay.readout": "melting point",
    "result": "148 to 150 °C"
  },
  {
    "compound": "CC(C)(C)C(=O)OC1CCC2(C)C(=CC(O)C3C2CCC2(C)C(=O)CC(OC(=O)C(C)(C)C)C32)C1 (centres undefined)",
    "assay.readout": "melting point",
    "result": "195 to 197 °C"
  },
  {
    "compound": "CCOC(=O)c1cnc2c(OC)cccc2c1Nc1cscc1C",
    "assay.readout": "melting point",
    "result": "162 to 164 °C"
  }
]
